target: MAP kinase-interacting serine/threonine-protein kinase 1 (Homo sapiens, UniProt Q9BUB5); assay: Inhibition of human MNK1 using CREBtide substrate by gamma-[32P]-ATP competitive inhibition assay
Sequence (Q9BUB5 whole entry): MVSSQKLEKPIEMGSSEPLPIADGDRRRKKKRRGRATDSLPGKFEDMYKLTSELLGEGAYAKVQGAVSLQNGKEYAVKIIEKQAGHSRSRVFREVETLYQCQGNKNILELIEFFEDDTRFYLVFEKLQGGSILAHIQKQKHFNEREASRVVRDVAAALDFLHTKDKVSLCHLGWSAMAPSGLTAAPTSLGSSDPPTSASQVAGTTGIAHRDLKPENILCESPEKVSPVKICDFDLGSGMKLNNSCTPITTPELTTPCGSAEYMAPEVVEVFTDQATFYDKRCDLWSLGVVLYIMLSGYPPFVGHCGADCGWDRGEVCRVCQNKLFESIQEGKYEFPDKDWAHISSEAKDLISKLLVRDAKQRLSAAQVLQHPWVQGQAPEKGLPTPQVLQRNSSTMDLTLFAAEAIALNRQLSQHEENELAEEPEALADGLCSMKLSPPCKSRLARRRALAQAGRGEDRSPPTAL
pIC50: −log10 of the molar value.
parameter: pIC50

The cases that follow already have their pIC50 on record.
>>> df
                            structurestring  assayvalue
0    CN1CCc2c(sc3ncnc(Nc4ccc(F)cc4Br)c23)C1        5.83
1    COc1cc(F)ccc1Nc1ncnc2sc3c(c12)CCN(C)C3        6.03
2  O=S(=O)(c1cccs1)N1CCc2c(sc3ncnc(Nc4ccc(F)cc4F)c23)C1        5.84
3  COc1ccc(S(=O)(=O)N2CCc3c(sc4ncnc(Nc5cccc(Cl)c5)c34)C2)cc1        5.85
4  O=S(=O)(c1ccc(F)cc1F)N1CCc2c(sc3ncnc(Nc4cccc(Cl)c4)c23)C1        5.76

a: O=[N+]([O-])c1ccccc1S(=O)(=O)N1CCc2c(sc3ncnc(Nc4ccc(Br)cc4)c23)C1
b: CN1CCc2c(sc3ncnc(Nc4cccc(F)c4)c23)C1
Which of the two items, a and b , has the greater recorded pIC50? Selection: enter the item's label. a

###

target: MAP kinase-interacting serine/threonine-protein kinase 1 (Homo sapiens, UniProt Q9BUB5)
parameter: IC50 (nM)

>>> df
                            structurestring                            measuredtarget  parameter  assayvalue
0  Cc1ccc(Nc2ncnc3sc4c(c23)CCN(C(=O)OC(C)(C)C)C4)c(Br)c1  MAP kinase-interacting serine/threonine-protein kinase 1 (Homo sapiens, UniProt Q9BUB5)       IC50        1700
1  Cc1cccc(Nc2ncnc3sc4c(c23)CCN(Cc2ccccc2)C4)c1  MAP kinase-interacting serine/threonine-protein kinase 1 (Homo sapiens, UniProt Q9BUB5)       IC50        2110
2  O=[N+]([O-])c1ccccc1S(=O)(=O)N1CCc2c(sc3ncnc(Nc4ccc(Cl)cc4F)c23)C1  MAP kinase-interacting serine/threonine-protein kinase 1 (Homo sapiens, UniProt Q9BUB5)       IC50        1260
3  Cc1ccc(Nc2ncnc3sc4c(c23)CCN(Cc2ccccc2)C4)c(Br)c1  MAP kinase-interacting serine/threonine-protein kinase 1 (Homo sapiens, UniProt Q9BUB5)       IC50        1570
4  COc1ccc(S(=O)(=O)N2CCc3c(sc4ncnc(Nc5cccc(C)c5)c34)C2)cc1  MAP kinase-interacting serine/threonine-protein kinase 1 (Homo sapiens, UniProt Q9BUB5)       IC50        1410
5  O=S(=O)(c1cccs1)N1CCc2c(sc3ncnc(Nc4ccc(Cl)cc4F)c23)C1  MAP kinase-interacting serine/threonine-protein kinase 1 (Homo sapiens, UniProt Q9BUB5)       IC50        1360

1: COc1cc(F)ccc1Nc1ncnc2sc3c(c12)CCN(S(=O)(=O)c1ccccc1[N+](=O)[O-])C3
2: Cc1cccc(Nc2ncnc3sc4c(c23)CCN(S(=O)(=O)c2ccc(F)cc2F)C4)c1
Parameter metric = IC50. Return the lower-valued option from 1 and 2 . Indicate which entry you chose by stating its label. 1
(1: 1100 nM, 2: 2400 nM)
